# Target under test: T1, AAV9 (adeno-associated virus 9)
# T1 construct: also called adeno-associated virus serotype 9
# Test method notes: SPR, AAV amine-coupled to CM5 chip;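 note: nanobodies flowed as analyte at seven concentrations spanning 1–100 nM over immobilized AAV (500–800 RU), kinetic constants derived by fitting the binding curves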
Form field: kon (one value per entry).

{"Binder": "A4-057 (VHH) VHH: VQLQESGGGLVQPGGSLRLSCAASGSIFSINTMGWYRQAPGKQREKVAAVTRGGSTNYADSVKGRFTISRDNAKNTVYLQMNSLRPEDTAVYYCHVDEVRQSSWTTSNLWGQGTQVTVSS", "kon [M⁻¹ s⁻¹]": 9190}
{"Binder": "A4-066 (VHH) VHH: VQLQESGGGLVQTGGSLRLSCAASGRAFSLNTMGWYRQAPGKQRELVATVTRGGSTNYAGSVKGRFTISRDNAKNTVYLQMNSLRPEDTAVYYCHVDEVRESSWTTSNLWGQGTQVTVSS", "kon [M⁻¹ s⁻¹]": 30700}
{"Binder": "A4-095 (VHH) VHH: VQLQESGGGLVQPGGSLRLSCAASGSSFSANTMGWYRQAPGKQRELVATITRGGNTNYGDSVKGRFTISRDNAKDTVYLQMNSLRPEDTAVYYCHIDEIRESTWTTSNLWGQGTQVTVSS", "kon [M⁻¹ s⁻¹]": 180000}
{"Binder": "A4-091 (VHH) VHH: VQLQESGGGLVQPGGSLRLSCAASGSRFSINTMGWYRQRAGKQRELVATVTRDGSTTYANSVKGRFTISRDNAKNTVYLQMNSLRPEDTAVYYCHVDELRQSTWTTSNLWGQGTQVTVSS", "kon [M⁻¹ s⁻¹]": 5790}
{"Binder": "A4-077 (VHH) VHH: VQLQESGGGLVQPGGSLRLSCAASGSMFSINIMGWYRQAPGKQREFVATITRGGSTNYADFVKGRFTISRDNAKNTVYLQMNSLRPEDTAVYYCHVDELRDSSWTTSNLWGQGTQVTVSS", "kon [M⁻¹ s⁻¹]": 198000}
{"Binder": "A4-065 (VHH) VHH: VQLQESGGGLVQSGGSLRLSCAASGRNFSLNTVGWYRQAPGKQRELVATVTRGGSTNYAGSVKGRFTISRDNAKNTVYLQMNSLRPEDTAVYYCHVDEVRESSWTTSNLWGQGTQVTVSS", "kon [M⁻¹ s⁻¹]": 165000}
{"Binder": "A4-100 (VHH) VHH: VQLQESGGGLVQPGGSLRLSCAASGSIFVINTMGWYRQAPGKQRELVASLTRGGSTNYADSVKGRFTISRDNDKNTIYLQMNSLRPEDTAVYYCHVDEVRESTWTTSNIWGQGTQVTVSS", "kon [M⁻¹ s⁻¹]": 165000}
{"Binder": "A4-075 (VHH) VHH: VQLQESGGGLVQSGGSLRLSCAASGSMFSLNTMGWYRQAPGKQRELVATITRGGGTNYADSVKGRFTISRDNAKNTVYLQMNSLRPEDTAVYYCHVDELRQSSWTTSNLWGQGTQVTVSS", "kon [M⁻¹ s⁻¹]": 102000}
{"Binder": "A4-093 (VHH) VHH: VQLQESGGGLVQTGGSLRLSCAASGSIFIINTMGWYRQRAGKQRELVATVTRGGSTNYADSVKGRFTISRDNAKNTVYLQMNTLRPEDTAVYYCHVDELRQSSWTTSNLWGQGTQVTVSS", "kon [M⁻¹ s⁻¹]": 70800}
{"Binder": "A4-086 (VHH) VHH: VQLQESGGGLVQPGGSLRLSCAASGSRFSLNTMGWYRQAPGKQRELVAAVTRGGNTNYADFVKGRFTISRDNAKNTVYLQMNSLRPEDTAVYYCHVDELRESSWTTSNLWGQGTQVTVSS", "kon [M⁻¹ s⁻¹]": 179000}
{"Binder": "A4-073 (VHH) VHH: VQLQESGGGLVQPGGSLRLSCAASGSNFSINTMGWYRQAPGKQREMVATVTRGGSTNYGDFVKGRFTISRDNAKNTVYLQMNSLRPEDTAVYYCHVDEIRQSSWTTSNIWGQGTQVTVSS", "kon [M⁻¹ s⁻¹]": 1560}

Origin of the recorded values: patent US20260193326A1
